Target: human Cav2.2 (composed of the subunits α1, β3 and α2δ) (Homo sapiens)
Assay: FLIPR assay (TSA201 cells stably transfected with human Cav2.2 and human Kir2.3, FLUO-4 Ca2+ signal, KCl depolarization)
Details: 70 mM KCl depolarization, average value
Parameter: IC50. Scope: all listed entries.
Write the number in µM without appending the unit.

# molecule, uom, IC50
rows = [
    ("CCN(c1nc(CN(C(C)=O)C2CCC(C(C)(C)C)CC2)cs1)C1CC1 (centres unmarked) [Compound 238]", "µM", 3.3),
    ("CC(C)(C)OC(=O)c1cccc(-c2ccc(CN(C(=O)C(C)(C)C)c3ccc(F)cc3)cn2)c1 [Compound 202]", "µM", 11.1),
    ("CC(C)(C)C(=O)N(Cc1cnc(N2CCCCC2)s1)c1ccc(F)cc1 [Compound 194]", "µM", 3.2),
    ("CCN(c1nc(CN(C(=O)C(C)(C)C)c2ccccc2F)cs1)C1CC1 [Compound 169]", "µM", 5.7),
]

Which IC50 value belongs to CC(C)(C)C(=O)N(Cc1csc(N2CCN(C(c3ccccc3)c3ccccc3)CC2)n1)c1ccc(F)cc1 [Compound 167] ?
13.3

Would you kindly repeat that for CC(C)(C)C(=O)N(Cc1csc(N2CCCCC2)n1)c1ccc(F)cc1 [Compound 134] ?
4.4

Would you kindly repeat that for CC(C)(C)OC(=O)N1CC[C@H](C(=O)N(Cc2ccc(Cl)nc2)c2ccc(F)cc2)C1 [Compound 254] ?
2.9

Would you kindly repeat that for CC(C)CNc1nc(CN(C(=O)C(C)(C)C)c2ccc(F)cc2)cs1 [Compound 161] ?
2.7

----------
Biological target: Cav2.2 (Homo sapiens, UniProt Q00975)
Construct: expressed in transfected cells; host or cells: HEK-293T/17 (transient, FuGENE 6)
Sequence (Q00975 whole entry): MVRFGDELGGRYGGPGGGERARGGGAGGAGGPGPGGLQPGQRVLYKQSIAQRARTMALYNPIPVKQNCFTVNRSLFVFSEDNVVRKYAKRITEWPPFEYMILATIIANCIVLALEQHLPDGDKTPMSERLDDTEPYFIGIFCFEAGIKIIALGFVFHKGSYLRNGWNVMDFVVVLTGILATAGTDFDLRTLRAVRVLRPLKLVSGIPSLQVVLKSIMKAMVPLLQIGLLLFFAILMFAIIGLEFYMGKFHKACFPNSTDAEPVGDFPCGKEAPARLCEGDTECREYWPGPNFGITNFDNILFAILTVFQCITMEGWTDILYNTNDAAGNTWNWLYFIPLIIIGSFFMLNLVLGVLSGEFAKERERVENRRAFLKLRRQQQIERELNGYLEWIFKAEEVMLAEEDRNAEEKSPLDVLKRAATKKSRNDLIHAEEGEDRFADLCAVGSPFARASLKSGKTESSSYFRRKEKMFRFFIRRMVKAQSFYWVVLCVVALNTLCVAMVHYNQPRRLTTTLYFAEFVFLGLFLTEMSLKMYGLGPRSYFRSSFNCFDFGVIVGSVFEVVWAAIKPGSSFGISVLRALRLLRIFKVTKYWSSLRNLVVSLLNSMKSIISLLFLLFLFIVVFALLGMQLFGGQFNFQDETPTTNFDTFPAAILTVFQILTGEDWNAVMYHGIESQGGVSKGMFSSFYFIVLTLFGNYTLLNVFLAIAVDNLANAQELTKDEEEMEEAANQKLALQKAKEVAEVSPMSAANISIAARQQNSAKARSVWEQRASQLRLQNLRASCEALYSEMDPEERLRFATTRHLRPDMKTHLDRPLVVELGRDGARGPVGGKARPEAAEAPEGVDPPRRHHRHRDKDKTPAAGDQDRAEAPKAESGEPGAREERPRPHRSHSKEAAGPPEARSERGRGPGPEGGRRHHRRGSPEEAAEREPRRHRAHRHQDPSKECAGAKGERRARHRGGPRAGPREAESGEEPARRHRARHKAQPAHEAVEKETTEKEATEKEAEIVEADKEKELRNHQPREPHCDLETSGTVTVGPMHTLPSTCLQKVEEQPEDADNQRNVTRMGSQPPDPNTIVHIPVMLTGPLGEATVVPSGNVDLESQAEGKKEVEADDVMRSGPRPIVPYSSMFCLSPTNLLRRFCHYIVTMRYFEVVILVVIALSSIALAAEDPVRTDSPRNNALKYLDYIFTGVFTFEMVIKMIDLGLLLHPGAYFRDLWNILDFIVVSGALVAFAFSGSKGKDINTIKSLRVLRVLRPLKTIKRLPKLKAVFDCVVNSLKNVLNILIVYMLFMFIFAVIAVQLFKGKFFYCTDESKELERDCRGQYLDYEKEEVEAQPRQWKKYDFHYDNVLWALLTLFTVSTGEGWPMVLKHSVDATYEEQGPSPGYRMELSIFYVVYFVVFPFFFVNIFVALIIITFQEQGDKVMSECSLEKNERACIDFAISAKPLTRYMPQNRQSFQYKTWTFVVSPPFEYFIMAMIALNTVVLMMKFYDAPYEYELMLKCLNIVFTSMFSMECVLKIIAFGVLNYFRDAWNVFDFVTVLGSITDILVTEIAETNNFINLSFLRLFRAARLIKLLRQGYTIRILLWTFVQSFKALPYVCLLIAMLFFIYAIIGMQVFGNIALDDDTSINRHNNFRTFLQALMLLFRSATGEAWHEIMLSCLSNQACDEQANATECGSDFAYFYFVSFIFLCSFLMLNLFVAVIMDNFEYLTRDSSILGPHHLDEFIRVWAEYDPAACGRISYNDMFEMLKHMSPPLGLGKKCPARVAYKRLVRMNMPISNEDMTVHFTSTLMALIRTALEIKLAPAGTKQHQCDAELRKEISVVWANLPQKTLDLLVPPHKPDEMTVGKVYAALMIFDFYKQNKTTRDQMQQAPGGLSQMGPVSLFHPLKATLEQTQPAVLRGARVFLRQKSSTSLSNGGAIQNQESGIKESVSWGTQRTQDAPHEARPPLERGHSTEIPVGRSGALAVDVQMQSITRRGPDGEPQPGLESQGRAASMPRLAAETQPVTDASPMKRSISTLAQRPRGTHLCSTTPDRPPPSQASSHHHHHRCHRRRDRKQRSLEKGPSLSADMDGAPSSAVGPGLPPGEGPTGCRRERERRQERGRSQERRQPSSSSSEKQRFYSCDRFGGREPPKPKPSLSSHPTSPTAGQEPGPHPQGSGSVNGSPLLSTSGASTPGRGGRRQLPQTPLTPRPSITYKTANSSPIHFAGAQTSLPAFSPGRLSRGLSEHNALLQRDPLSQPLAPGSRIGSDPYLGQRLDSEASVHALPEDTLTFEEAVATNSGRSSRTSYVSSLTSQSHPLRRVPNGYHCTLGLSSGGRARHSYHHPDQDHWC
Sequence (P54284 whole entry partner): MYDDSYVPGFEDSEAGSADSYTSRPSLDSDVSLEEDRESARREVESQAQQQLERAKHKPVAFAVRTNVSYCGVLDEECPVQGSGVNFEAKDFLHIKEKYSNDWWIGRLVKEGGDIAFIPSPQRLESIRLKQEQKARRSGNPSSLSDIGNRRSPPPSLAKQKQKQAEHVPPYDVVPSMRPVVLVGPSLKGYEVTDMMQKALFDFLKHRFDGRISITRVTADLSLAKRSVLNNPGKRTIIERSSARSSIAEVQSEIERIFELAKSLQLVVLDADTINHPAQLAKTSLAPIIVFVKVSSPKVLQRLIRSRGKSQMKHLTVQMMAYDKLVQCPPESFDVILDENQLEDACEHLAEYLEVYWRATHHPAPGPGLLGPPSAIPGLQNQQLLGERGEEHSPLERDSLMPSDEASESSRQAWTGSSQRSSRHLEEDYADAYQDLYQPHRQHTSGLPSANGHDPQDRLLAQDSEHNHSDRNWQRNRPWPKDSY
Sequence (P54289 25-946 partner limits assumed): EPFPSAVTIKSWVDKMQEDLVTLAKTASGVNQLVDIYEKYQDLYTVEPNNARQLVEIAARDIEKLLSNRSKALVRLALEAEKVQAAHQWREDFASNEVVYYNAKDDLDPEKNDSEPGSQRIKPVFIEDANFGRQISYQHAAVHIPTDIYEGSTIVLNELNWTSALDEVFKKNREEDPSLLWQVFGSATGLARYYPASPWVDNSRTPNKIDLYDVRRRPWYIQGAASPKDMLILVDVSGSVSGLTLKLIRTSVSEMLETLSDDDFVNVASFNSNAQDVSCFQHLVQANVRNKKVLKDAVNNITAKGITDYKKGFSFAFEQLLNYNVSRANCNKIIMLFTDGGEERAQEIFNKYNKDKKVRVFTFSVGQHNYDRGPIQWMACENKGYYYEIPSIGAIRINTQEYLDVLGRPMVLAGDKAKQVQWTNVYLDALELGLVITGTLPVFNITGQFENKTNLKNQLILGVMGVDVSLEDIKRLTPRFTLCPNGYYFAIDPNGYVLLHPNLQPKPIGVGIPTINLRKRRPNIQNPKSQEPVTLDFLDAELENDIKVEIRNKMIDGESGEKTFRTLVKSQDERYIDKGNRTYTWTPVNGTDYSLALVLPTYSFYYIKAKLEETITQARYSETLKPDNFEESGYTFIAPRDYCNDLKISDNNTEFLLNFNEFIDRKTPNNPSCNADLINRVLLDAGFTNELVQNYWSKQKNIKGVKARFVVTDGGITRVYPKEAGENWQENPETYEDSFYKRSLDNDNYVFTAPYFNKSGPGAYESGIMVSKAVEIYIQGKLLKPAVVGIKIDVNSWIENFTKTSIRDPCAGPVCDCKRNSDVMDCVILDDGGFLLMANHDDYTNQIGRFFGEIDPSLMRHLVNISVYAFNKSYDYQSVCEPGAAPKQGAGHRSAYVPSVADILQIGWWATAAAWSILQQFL
Sequence (P54289 947-1103 partner limits assumed): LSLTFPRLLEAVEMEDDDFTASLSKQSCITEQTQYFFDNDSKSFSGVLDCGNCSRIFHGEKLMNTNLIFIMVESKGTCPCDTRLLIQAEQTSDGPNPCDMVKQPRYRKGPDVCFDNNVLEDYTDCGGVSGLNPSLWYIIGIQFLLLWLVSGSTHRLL
Assay: HEK assay (whole-cell patch clamp, transiently transfected HEK-293T/17 cells, pulses P1 and P5)
Type: cell-based
Details: fifth pulse (P5) of 5 Hz train, holding potential −100 mV, read-out: HEK Cav2.2 P5 IC50
Where a name gives a salt, the structure may show the parent alone.
property: IC50 (nM)
Write the number in nM without appending the unit.

# get_value(readout= IC50, system= Cav2.2 (Homo sapiens, UniProt Q00975)) for CC(C)(C)C(=O)N(Cc1cnc(N2CCCC2)s1)c1ccc(F)cc1 [Compound 1, hydrochloride]
8300

Would you kindly repeat that for CN(CCc1cccnc1)c1ccc(CN(C(=O)C(C)(C)C)c2ccc(F)cc2)cn1 ?
1100

Would you kindly repeat that for CCN(c1ccc(CN(C(=O)C2Cc3ccccc3CN2)c2ccc(F)cc2)cn1)C1CC1 (stereo not shown) [Compound 14, dihydrochloride] ?
600

Would you kindly repeat that for CC(C)(C)C(=O)N(Cc1ccc(N2CC[C@H](Oc3ccccn3)C2)nc1)c1ccc(F)cc1 (stereo in doubt) ?
800

----------
Molecular target: Cav2.2 (Homo sapiens)
Construct: expressed in transfected cells; host or cells: HEK-293T/17 (transient, FuGENE 6)
Test: HEK assay (whole-cell patch clamp, transiently transfected HEK-293T/17 cells, pulses P1 and P5)
Type: cell-based
Conditions: first pulse (P1) of 5 Hz train, holding potential −100 mV, read-out: HEK Cav2.2 P1 IC50
Structures can show the parent of a compound that is named as a salt.
Parameter: IC50. Scope: all listed entries.

Answered cases to consult:
# molecule, IC50
rows = [
    ("CN(C)c1ccc(N(Cc2csc(N3CCCCC3)n2)C(=O)C(C)(C)C)cc1", "12.6 µM"),
    ("CCN(CC)c1cccc(CN(C(=O)C(C)(C)C)c2ccc(F)cc2)n1 [Compound 4, hydrochloride]", "2.9 µM"),
    ("Cc1ccc(OCCN(C)c2ccc(CN(C(=O)C(C)(C)C)c3ccc(F)cc3)cn2)nc1", "1 µM"),
    ("CCN(c1nc(CN(C(=O)C(C)(C)C)c2ccc(F)cc2)cs1)C1CC1", "3.3 µM"),
    ("CCN(CC)c1nc(CN(C(=O)C(C)(C)C)c2ccc(F)cc2)cs1", "6 µM"),
    ("Cc1cc(F)ccc1N(Cc1ccc(N2CCN(C)CC2)nc1)C(=O)C(C)(C)C", "10.5 µM"),
    ("CCN(Cc1ccncc1)c1ccc(CN(C(=O)C(C)(C)C)c2ccc(F)cc2)cn1", "6.3 µM"),
]

Next up:
# get_value(readout= IC50, system= Cav2.2 (Homo sapiens)) for CC(C)c1cccc(N(Cc2csc(N3CCCCC3)n2)C(=O)C(C)(C)C)c1
2.4 µM

----------
Parameter: IC50. Scope: all listed entries.
Target: human Cav2.2 (composed of the subunits α1, β3 and α2δ) (Homo sapiens, UniProt Q00975)
Sequence (Q00975 whole entry): as the sequence (Q00975 whole entry) above
Sequence (P54284 whole entry partner): as the sequence (P54284 whole entry partner) above
Sequence (P54289 25-946 partner limits assumed): as the sequence (P54289 25-946 partner limits assumed) above
Sequence (P54289 947-1103 partner limits assumed): as the sequence (P54289 947-1103 partner limits assumed) above
Assay: FLIPR assay (TSA201 cells stably transfected with human Cav2.2 and human Kir2.3, FLUO-4 Ca2+ signal, KCl depolarization)
Conditions: 70 mM KCl depolarization, average value
Write the number in µM without appending the unit.

Answered cases to consult:
# compound, target, uom, IC50
records = [
    ("CC(C)(C)C(=O)N(Cc1csc(-c2ccc(C(F)(F)F)cc2)n1)c1ccc(F)cc1 [Compound 241]", "human Cav2.2 (composed of the subunits α1, β3 and α2δ) (Homo sapiens, UniProt Q00975)", "µM", 6.7),
    ("CC(=O)N(Cc1ccc(N2CCC(C#N)CC2)nc1)c1ccc(F)cc1 [Compound 229]", "human Cav2.2 (composed of the subunits α1, β3 and α2δ) (Homo sapiens, UniProt Q00975)", "µM", 19.7),
    ("CCN(c1nc(CN(C(=O)C(C)(C)C)c2ccc(C)cc2)cs1)C1CC1 [Compound 173]", "human Cav2.2 (composed of the subunits α1, β3 and α2δ) (Homo sapiens, UniProt Q00975)", "µM", 3.8),
    ("CN1CCN(c2ccc(CN(C(=O)[C@H]3CCN(C(=O)C(C)(C)C)C3)c3ccc(F)cc3)cn2)CC1 [Compound 260]", "human Cav2.2 (composed of the subunits α1, β3 and α2δ) (Homo sapiens, UniProt Q00975)", "µM", 47.3),
    ("CC(C)(C)OC(=O)N1CCN(c2nc(CN(C(=O)C(C)(C)C)c3ccc(F)cc3)cs2)CC1 [Compound 146]", "human Cav2.2 (composed of the subunits α1, β3 and α2δ) (Homo sapiens, UniProt Q00975)", "µM", 35.4),
]

Which IC50 value belongs to CC(C)(C)C(=O)N(Cc1csc(Br)n1)c1ccc(F)cc1 [Compound 144] ?
3.2

Would you kindly repeat that for CCN(c1nc(CN(C(=O)C(C)(C)C)c2ccccc2C)cs1)C1CC1 [Compound 171] ?
6.5

Would you kindly repeat that for CC(C)(C)C(=O)N(Cc1csc(-c2cnc3ccccc3c2)n1)c1ccc(F)cc1 [Compound 240] ?
10.1

----------
Target: human Cav2.2 (composed of the subunits α1, β3 and α2δ) (Homo sapiens)
Experiment: FLIPR assay (TSA201 cells stably transfected with human Cav2.2 and human Kir2.3, FLUO-4 Ca2+ signal, KCl depolarization)
Details: 70 mM KCl depolarization, average value
Parameter: IC50. Scope: all listed entries.
Write the number in µM without appending the unit.

# molecule, IC50 [µM]
data = [
    ("CCN(c1nc(CN(C(=O)C2CCCCC2)c2ccc(F)cc2)cs1)C1CC1", 2.4),
    ("O=C(C1CCCO1)N(Cc1ccc(Cl)nc1)c1ccc(F)cc1 (centres unmarked)", 13.4),
    ("CC(C)(C)C(=O)N(Cc1csc(-c2ccccc2)n1)c1ccc(F)cc1", 7.9),
    ("O=C(C1CC1)N(Cc1csc(N2CCOCC2)n1)c1ccc(F)cc1", 23.9),
    ("CC1CC(C)CN(c2nc(CN(C(=O)C(C)(C)C)c3ccc(F)cc3)cs2)C1 (centres unmarked)", 2.2),
]

# get_value(readout= IC50, system= human Cav2.2 (composed of the subunits α1, β3 and α2δ) (Homo sapiens)) for CCN(CC)C1CCN(c2ccc(CN(C(=O)C(C)(C)C)c3ccc(F)cc3)cn2)C1 (centres unmarked)
11.5

Would you kindly repeat that for O=C(C1CCCCC1)N(Cc1ccc(N2CCN(c3ccccn3)CC2)nc1)c1ccc(F)cc1 ?
9.1

Would you kindly repeat that for CC(C)(C)OC(=O)N1CCC(c2nc(CN(C(=O)C(C)(C)C)c3ccc(F)cc3)cs2)CC1 ?
2.7

----------
Molecular target: human Cav2.2 (composed of the subunits α1, β3 and α2δ) (Homo sapiens)
Experiment: FLIPR assay (TSA201 cells stably transfected with human Cav2.2 and human Kir2.3, FLUO-4 Ca2+ signal, KCl depolarization)
Settings: 70 mM KCl depolarization, average value
property: IC50
Output should be the measured figure followed by the unit it is expressed in.

# smi, property, value measured
data = [
    ("CCN(c1nc(CN(C(C)=O)c2ccc(F)cc2)cs1)C1CC1", "IC50", "9.1 µM"),
    ("CN(C)CCNc1nc(CN(C(=O)C(C)(C)C)c2ccc(F)cc2)cs1", "IC50", "12.9 µM"),
    ("O=C(Cc1ccccc1)N(Cc1csc(N2CCOCC2)n1)C1CCCCC1", "IC50", "9.7 µM"),
    ("CN1CCN(c2nc(CN(C(=O)C(C)(C)C)c3ccc(F)cc3)cs2)CC1", "IC50", "10.6 µM"),
]

# get_value(readout= IC50, system= human Cav2.2 (composed of the subunits α1, β3 and α2δ) (Homo sapiens)) for CC(C)(C)C(=O)N(Cc1csc(N2CCC(C#N)CC2)n1)c1ccc(F)cc1
3.8 µM

Would you kindly repeat that for COc1ccc(N(C)c2nc(CN(C(=O)C(C)(C)C)c3ccc(F)cc3)cs2)cc1 ?
6.8 µM

Would you kindly repeat that for CC(=O)N(Cc1ccc(N2CCC(O)CC2)nc1)c1ccc(F)cc1 ?
49.7 µM

Would you kindly repeat that for CCN(c1nc(CN(C(=O)C(C)(C)C)c2cccc(C)c2)cs1)C1CC1 ?
4.3 µM

Would you kindly repeat that for CCN(CC)c1ccc(CN(C(=O)[C@@H]2CCCN2)c2ccc(F)cc2)cn1 ?
34.8 µM
